Entries and their interaction score
- MEASUREMENT_TARGET: T1, 4H3029-AA
- T1 chain: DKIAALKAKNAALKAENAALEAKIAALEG
- PROCEDURE_DETAILS: two-hybrid library CCmax;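 note: natural log of median RNA to DNA barcode read ratio; higher means stronger binding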
- RECORDED_CONDITIONS: mean of both orientations
Give only the figure.

Use the examples below as a reference point.
{"BINDER": "DENAALEAKIAALKAEIAALEAENAALKG [4H1348-AA]", "TEST_READOUT": "interaction score", "NUMERIC_RESULT": -1.57}
{"BINDER": "DENAALKAKIAALEAENAALEAEIAALEG [4H1809-AA]", "TEST_READOUT": "interaction score", "NUMERIC_RESULT": -2.28}
{"BINDER": "DENAALEAEIAALKAENAALEAKIAALEG [4H1109-AA]", "TEST_READOUT": "interaction score", "NUMERIC_RESULT": -0.926}

We next turn to a different binder, shown below.
Q. Item under review: DKIAALKAENAALEAKNAALEAKIAALKG [4H2742-AA] . Reported interaction score?
A. 0.775
